measurement-description: logP by HPLC on reversed-phase column (C 18), EEC Directive 79/831 Annex V.A8
Format: physicochemical
setup-conditions: reversed-phase HPLC column (C 18), C 18, 40° C., 0.1% aqueous formic acid and acetonitrile, read-out: logPa
measurement-type: chromatographic logP

As a guide, the following entries are already answered.
What the record says about CCN(C)/C=N/c1cc(Cl)c(Oc2ccc(Cl)c(C(C)(C)C)c2)cc1C : chromatographic logP is 3.02

What the record says about CCc1cc(Oc2cc(C)c(/N=C/N(C)CC)cc2Cl)ccc1Cl : chromatographic logP is 2.78

What the record says about CCCCc1cc(Oc2cc(C)c(/N=C/N(C)CC)cc2C)ccc1Cl : chromatographic logP is 2.95

What the record says about CCCN(C)/C=N/c1cc(Cl)c(Oc2ccc(Cl)c(C(C)(C)C)c2)cc1C : chromatographic logP is 3.27

I = CCc1cc(Oc2cc(C)c(/N=C/N(C)C(C)C)cc2C)ccc1Cl
II = CCN(C)/C(S)=N/c1cc(C)c(Oc2ccc(Cl)c(C(C)C)c2)cc1C
Between the entries labelled I and II , which has a larger chromatographic logP value on record? Indicate your choice by writing its label.
II
(II: 4.81, I: 2.75)

* * *

measurement-description: logP by HPLC on reversed-phase column (C 18), EEC Directive 79/831 Annex V.A8
Format: physicochemical
setup-conditions: reversed-phase HPLC column (C 18), C 18, 40° C., 0.1% aqueous formic acid and acetonitrile, read-out: logPa
measurement-type: chromatographic logP

What the record says about CCN(C)/C=N/c1cc(C#N)c(Oc2ccc(Cl)c(C(C)C)c2)cc1C [Example 38] : chromatographic logP is 2.45

What the record says about CCCN(C)/C=N/c1cc(C)c(Oc2ccc(Br)c(C(C)C)c2)cc1C [Example 17] : chromatographic logP is 2.91

What the record says about CCN(C)/C=N/c1cc(C)c(Oc2ccc(Cl)c(C)c2)cc1C [Example 4] : chromatographic logP is 2.31

What the record says about Cc1cc(Oc2cc(C)c(/N=C/N(C)C(C)C)cc2C)ccc1F [Example 44] : chromatographic logP is 2.29

Sourced from patent US8183296B2
